Molecular target: T1, TNF-gamma-beta, full length, on transfected cells (human, UniProt O95150 1-251)
T1 construct: whole, on cells; also called TL1β
T1 sequence (looked up): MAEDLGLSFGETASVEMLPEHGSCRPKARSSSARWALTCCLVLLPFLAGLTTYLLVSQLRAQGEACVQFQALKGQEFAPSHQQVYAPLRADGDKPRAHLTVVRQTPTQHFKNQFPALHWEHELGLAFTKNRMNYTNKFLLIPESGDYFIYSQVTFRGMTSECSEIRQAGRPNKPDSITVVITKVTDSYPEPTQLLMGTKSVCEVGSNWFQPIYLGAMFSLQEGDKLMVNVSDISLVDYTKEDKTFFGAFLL
Experiment: flow cytometry on HEK293F cells expressing full length TNF-gamma-beta
quantity.measured: binding result

Human Fas(M1-G169)-Fc fusion protein (Fc fusion, UniProt P25445 26-169, looked up, not shown: a dimerising Fc or GST, range 1-169; From CHO cells; a disulfide-linked dimer; also called Fas-Fc; FasFc) QVTDINSKGLELRKTVTTVETQNLEGLHHDGQFCHKPCPPGERKARDCTVNGDEPDCVPCQEGKEYTDKAHFSSKCRRCRLCDEGHGLEVEINCTRTQNTKCRCKPNFFCNSTVCEHCDPCTKCEHGIIKECTLTSNTKCKEEG : no binding
DcR1-Fc (Fc fusion, UniProt O14798 26-236, looked up, not shown: a dimerising Fc or GST, extracellular domain) ATTARQEEVPQQTVAPQQQRHSFKGEECPAGSHRSEHTGACNPCTEGVDYTNASNNEPSCFPCTVCKSDQKHKSSCTMTRDTVCQCKEGTFRNENSPEMCRKCSRCPSGEVQVSNCTSWDDIQCVEEFGANATVETPAAEETMNTSPGTPAPAAEETMNTSPGTPAPAAEETMTTSPGTPAPAAEETMTTSPGTPAPAAEETMITSPGTPA : no binding
TACI-Fc (extracellular domain of human TAC1, aa 1-159, fused to the Fc domain of human IgG1) (Fc fusion, UniProt O14836 1-159, looked up, not shown: a dimerising Fc or GST, range 1-159; also called TAC1-Fc) MSGLGRSRRGGRSRVDQEERFPQGLWTGVAMRSCPEEQYWDPLLGTCMSCKTICNHQSQRTCAAFCRSLSCRKEQGKFYDHLLRDCISCASICGQHPKQCAYFCENKLRSPVNLPPELRRQRSGEVENNSDNSGRYQGLEHRGSEASPALPGLKLSADQ : no binding
